assay: NCI Yeast Anticancer Drug Screen. Data for the sgs1 mgt1 strain (AID 161);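 also: 0% = growth of cultures given vehicle only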; settings: S. cerevisiae sgs1 mgt1 strain, at 50.0 µM, hits give high values
Compounds without any hit were thinned out: in the full panel of roughly 79,000, 15% have a hit.
Record form. Attribute: growth inhibition. Fill in for each entry.
Numbers only, in %.

> print(dat)
                   molecule  property.measured  result
1  COC(=N)Cc1cc(OC)cc(OC)c1  growth inhibition    7.45

Would you mind giving growth inhibition for every molecule in the list below?
1. CC(=O)Nc1cc(=O)[nH]c2c1CCC2
2. Cc1ccc(CCCC(N)=O)cc1
3. CC(=O)OCC1OC(Cl)C(NS(=O)(=O)Cc2ccccc2)C(OC(C)=O)C1OC(C)=O (configuration not stated)
4. C[Si](C)(C)CCCn1ccc(=O)[nH]c1=O
5. CCCC(=O)Oc1ccc(Br)cc1
6. O=C1C(c2ccccc2)C(c2ccccc2)C(c2ccccc2)C1c1ccccc1 (configuration not stated)

1: -1.8; 2: 8.85; 3: 15.7; 4: 27.8; 5: -5.25; 6: 15.9

Would you mind giving growth inhibition for every molecule in the list below?
1. CCOC1(C)OC2OC(COC(c3ccccc3)(c3ccccc3)c3ccccc3)C(OC(=O)c3ccccc3)C(OC(=O)c3ccccc3)C2O1 (configuration not stated)
2. O=C(CCc1ccco1)CCc1ccco1
3. CCOC(CCNCC(OCC)OCC)OCC
4. CCC1(C)C(=O)SC(=S)N1C (configuration not stated)

4.05
5.45
-29.4
-4.9

Dear colleague, I am looking for the recorded growth inhibition of the following molecule: N#CC(CC(=O)c1ccccc1)c1ccccc1Cl (configuration not stated)
31.3

* * *

Record form. Attribute: growth inhibition. Fill in for each entry.
Assay: NCI Yeast Anticancer Drug Screen. Data for the cln2 rad14 strain (AID 165);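 also: 0% = growth equal to vehicle treated cultures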
Details: S. cerevisiae cln2 rad14 strain, at 50.0 µM, hits give high values
Experimental: Growth inhibition of yeast strains with defined genetic alterations is measured as a screen for potential anti-cancer activity. Selected strains with alterations in DNA damage repair or cell cycle control were exposed to compounds and growth inhibition was measured relative to vehicle treated controls. The strain used in this assay is cln2 rad14
The panel holds about 79,000 compounds, 15% with a hit somewhere; the sample as a whole holds those more often. The source made the active and inactive calls. Rule as the data show it: active = growth inhibition above about 70%; inactive = the rest.

The cases that follow already have their growth inhibition on record.
> print(dat)
                                   molecule  property.measured             result
1                     CC(=O)C(N)=NCc1ccccc1  growth inhibition    4.6% (inactive)
2                  Cc1ccccc1C(=O)NCc1ccccc1  growth inhibition  -27.5% (inactive)
3             Cc1ccc2[nH]c(=S)[nH]c(=S)c2c1  growth inhibition  -19.8% (inactive)
4     COc1ccccc1C(c1ccccc1OC)c1ccccc1C(=O)O  growth inhibition     15% (inactive)
5      NC(=O)C(N)CC(=O)O (stereo not drawn)  growth inhibition  -16.1% (inactive)
6      O=C1CCCC/C1=C\c1ccc([N+](=O)[O-])cc1  growth inhibition   10.1% (inactive)
7                       CC(C)(O)C(Br)(Br)Br  growth inhibition    -33% (inactive)
8  N#C/C(=C\c1ccc2[nH]ccc2c1)C(=O)NCCCCNC(=O)/C(C#N)=C/c1ccc2[nH]ccc2c1  growth inhibition  -21.4% (inactive)

Would you mind giving growth inhibition for every molecule in the list below?
1. O=[N+]([O-])c1ccc2nc[nH]c2c1
2. CCSc1ccc(N=[N+]([O-])c2ccc(SCC)c(Cl)c2)cc1Cl

1. 25.5% (inactive)
2. -17.1% (inactive)

Would you mind giving growth inhibition for every molecule in the list below?
1. Nc1ccc(S(=O)(=O)Nc2ccccn2)cc1
2. O=C1OC(=O)C2C3C=CC(C4C=C(C5CC5)C43)C12 (stereo not drawn)
3. O=C(O)c1ccnc(-c2ccc(Cl)cc2)c1

1: -41.4% (inactive); 2: -22.9% (inactive); 3: -17.2% (inactive)

* * *

assay: NCI Yeast Anticancer Drug Screen. Data for the bub3 strain (AID 167); settings: S. cerevisiae bub3 mutant strain, at 50.0 µM, hits give high values
The panel holds about 79,000 compounds, 15% with a hit somewhere; the sample as a whole holds those more often. Active and inactive are the calls of the source. Cut-off read from the data, not from the text of the source: active = growth inhibition above about 70%; inactive = the rest.
Record form. Attribute: growth inhibition. Fill in for each entry.

> print(dat)
                                   molecule             result
1   CCC(C)[N+](=O)[O-] (stereo unspecified)   0.75% (inactive)
2  COC(=O)c1nc(=S)[nH]c(C(=O)OC)c1C(=O)c1cccc2ccccc12   -5.5% (inactive)
3  Cc1c(NC(=O)Nc2c(Cl)cccc2Cl)c(=O)n(-c2ccccc2)n1C  -29.9% (inactive)
4      CCOC(=O)/C(Cc1nc2ccccc2[nH]c1=O)=N\O  -4.45% (inactive)
5  CC(=O)Nc1ccc(S(=O)(=O)N/N=c2/sc3ccccc3n2C)cc1N  -8.75% (inactive)

Dear colleague, I am looking for the recorded growth inhibition of the following molecule: COc1ccc2c(c1)C(=O)N1CCOC1C2C(=O)O (stereo unspecified)
-0.8% (inactive)

* * *

experiment: NCI Yeast Anticancer Drug Screen. Data for the rad50 strain (AID 155);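 also: 0% = growth of vehicle-only cultures of the same strain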; conditions: S. cerevisiae rad50 strain growth inhibition; at 50.0 µM; hits give high values
About 79,000 compounds went through this panel and 15% of them were active in at least one assay; those are over-represented in the sample as a whole.
Property Measured: growth inhibition (%)
Numbers only, in %.

The cases that follow already have their growth inhibition on record.
> print(dat)
                                   compound  unit.annotation  result
1                            OCCCCCCCCCCCBr                %    28.4
2  Cc1ccc(C(=O)CC(C#N)c2ccccc2)cc1 (configuration not stated)                %    25.6
3          CNc1nc2c(C)ccc3[nH]c(NC)nc3c-2n1                %   -22.2

Would you mind giving growth inhibition for every compound in the list below?
1. CC(=O)C(N=NC1CCC(S(=O)(=O)NB2N=CS2)CC1)C(=O)Nc1ccccc1C (configuration not stated)
2. N#CC(C(=O)CCCC(=O)Nc1ccc(Cl)cc1Cl)c1ccccc1 (configuration not stated)
3. Cc1cc(C(=O)O)c2cc(Br)ccc2n1

1: -32.2; 2: -39; 3: 4.2

Dear colleague, I am looking for the recorded growth inhibition of the following compound: `c1ccc(Cc2ccc3ccccc3c2)cc1`
35.3

* * *

experiment: NCI Yeast Anticancer Drug Screen. Data for the mlh1 rad18 strain (AID 175); conditions: S. cerevisiae mlh1 rad18 strain growth inhibition; at 50.0 µM; hits give high values
About 79,000 compounds went through this panel and 15% of them were active in at least one assay; those are over-represented in the sample as a whole.
Property Measured: growth inhibition (%)
Give bare numbers, in %.

The cases that follow already have their growth inhibition on record.
> print(dat)
                                   compound  property.measured  unit.annotation  result
1  COC(=O)C1C(=O)C=C(C)C(C(=O)OC)C1c1ccccc1 (stereo unspecified)  growth inhibition                %    0.25
2            O=CNCCc1ccc2c(c1)[nH]c1ccccc12  growth inhibition                %    20.6
3                      CCCCOC(=O)c1ccccc1OC  growth inhibition                %    -6.9

Would you mind giving growth inhibition for every compound in the list below?
1. CCOC(=O)NC(C(F)(F)F)(C(F)(F)F)P(=O)(OC(C)C)OC(C)C
2. CC(C)CCOC(=O)N(C)c1ccccc1
3. O=CC(NC(=O)C(O)C(O)C(O)C(O)CO)C(O)C(O)C(O)CO (stereo unspecified)
4. CC(=O)OC12C=CC(=O)N1c1ccccc1C(=O)O2 (stereo unspecified)

1.65
-9.8
1.15
42.4

Would you mind giving growth inhibition for every compound in the list below?
1. c1ccc2c(c1)ccc1c2ccc2c1cc1ccccn12
2. COc1ccc(-c2cc(-c3ccc(Cl)cc3)on2)cc1
3. Cc1ccc(CSCc2c(CSCc3ccc(C)cc3)c(CSCc3ccc(C)cc3)c(CSCc3ccc(C)cc3)c(CSCc3ccc(C)cc3)c2CSCc2ccc(C)cc2)cc1
4. CC(O)/C=C/C(CCC(C)CO)C(C)C (stereo unspecified)

[0.8, -11.4, 6.85, -16]

* * *

test: NCI Yeast Anticancer Drug Screen. Data for the mec2-1 strain (AID 157); details: S. cerevisiae mec2-1 strain, at 50.0 µM
Compounds without any hit were thinned out: in the full panel of roughly 79,000, 15% have a hit. Active and inactive are the calls of the source. Cut-off read from the data, not from the text of the source: active = growth inhibition above about 70%; inactive = the rest.
Respond using exactly one of the listed classes: active, inactive

> print(dat)
                                   molecule       cat
1                             CC(C)CCC(=O)O  inactive
2  COc1cc(CCC(=O)NS(=O)(=O)c2ccccc2)cc(OC)c1OC  inactive
3             c1ccc(Cn2cccc2N=Nc2ccccc2)cc1  inactive
4  CN(C)c1ccc(/C=C(\NC(=O)c2ccccc2)C(=O)NC(CC(=O)O)C(=O)O)cc1 (configuration not stated)  inactive
5  COc1cc(N=Nc2ccccc2)cc(/C=N\NC(=S)Nc2cccc(C)c2)c1O  inactive
6  CCCCN(C)CCNc1cc(C)nc(Nc2nc3ccc(Cl)cc3[nH]2)n1    active

How did this test come out for `COc1ccc(CCCCC(=O)O)cc1` ?
inactive

Entry to check: `Cn1c(Nc2ccccc2)c([N+](=O)[O-])c(=O)n(C)c1=O`
inactive

Entry to check: `CCOC(=O)NC(OCCN(C)C)(C(F)(F)F)C(F)(F)F`
inactive

Entry to check: CCN(CC)CCC(O)(c1cccc(Cl)c1)C1CCCCC1 (configuration not stated)
inactive

Entry to check: `C=CCc1ccc(OC(=O)Nc2ccc(S(=O)(=O)CC)cc2)c(OC)c1`
inactive

Entry to check: `CC(C)(C)C(N)=O`
inactive
